Biological target: T1, Fus1, P11710
T1 sequence (P11710 432-512, looked up): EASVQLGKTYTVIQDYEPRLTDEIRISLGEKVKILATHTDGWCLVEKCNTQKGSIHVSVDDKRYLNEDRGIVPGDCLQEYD
Assay: SPOT array
Conditions: median of control spots 1200
Hi! Just check whether SPOT intensity is below 2. Below gives TRUE, equal or above gives FALSE.

• RNNRPVPPPPPMRTT = TRUE
• NAGIRPKFILALNDE = TRUE
• RPVPRRPSQPLNTLS = TRUE

Q: Decide: SPOT intensity of `VFQFQMPTTPISTKM` strictly below 2?
Ans: TRUE

Q: In plain terms, does `QHQQRQPKRPKRYSL` come in under 2 for SPOT intensity?
Ans: FALSE
